Test system: S. aureus strain USA300-0114
protocol_text: AK assay 384-well format, Prestwick library screening
Format: cell-based, Staphylococcus aureus
assay_context: Staphylococcus aureus, USA300, 3 h; 50 μM final drug concentration; planktonic; cutoff for positive-scoring molecules 3-fold increase; read-out: AK-based Prestwick Library Screening Results, S. aureus (fold increase in extracellular AK activity)
Counter-ions that a name gives are not always drawn.
Entries and their measured fold induction at 50 µM follow.

compound	fold induction at 50 µM
c1coc(CNc2ncnc3nc[nH]c23)c1 [Compound 6-Furfurylaminopurine, 6-Furfurylaminopurine]	0.6
Nc1ccc(S(=O)(=O)Nc2cnc3ccccc3n2)cc1 [Sulfaquinoxaline sodium salt]	0.7
NC(=NCc1ccccc1)NC(=O)c1nc(Cl)c(N)nc1N [Benzamil hydrochloride]	0.7
O=C(O)Cc1ccc(-c2ccccc2)cc1 [Felbinac]	0.6
CN(C(=O)C(Cl)Cl)c1ccc(OC(=O)c2ccco2)cc1 [Diloxanide furoate]	0.7
CC(=O)/N=c1/sc(S(N)(=O)=O)nn1C [Methazolamide]	0.6

###

Test system: P. aeruginosa
protocol_text: AK assay 384-well format, Prestwick library screening
Format: cell-based, Pseudomonas aeruginosa
assay_context: Pseudomonas aeruginosa, 3 h; planktonic P. aeruginosa; 50 μM final drug concentration; cutoff for positive-scoring molecules 3-fold increase; read-out: AK-based Prestwick Library Screening Results, P. aeruginosa (increase in extracellular AK activity)
Counter-ions that a name gives are not always drawn.
# 1 = fold induction at 50 µM below 0.9 (exclusive); 0 = fold induction at 50 µM at/above 0.9

compound	class_name
O=C(CCCN1CC=C(n2c(=O)[nH]c3ccccc32)CC1)c1ccc(F)cc1 [Droperidol]	1
O=C(O)CCCC[C@@H]1SC[C@@H]2NC(=O)N[C@@H]21 [Biotin]	1
C=C(C)[C@@H]1CC[C@]2(C(=O)O)CC[C@]3(C)[C@H](CC[C@@H]4[C@@]5(C)CC[C@H](O)C(C)(C)[C@@H]5CC[C@]43C)[C@@H]12 [Betulinic acid]	1
CC[C@H]1CN2CCc3cc(OC)c(OC)cc3[C@@H]2C[C@@H]1C[C@H]1NCCc2cc(OC)c(OC)cc21 [Emetine dihydrochloride]	1
CN1CCCC(CC2c3ccccc3Sc3ccccc32)C1 (stereo not shown) [Metixene hydrochloride]	1
C[C@H]1C[C@H]2[C@@H]3CCC4=CC(=O)C=C[C@]4(C)[C@@]3(F)[C@@H](O)C[C@]2(C)[C@@]1(O)C(=O)CO [Betamethasone]	0
CC(=O)N(CC(O)CO)c1c(I)c(C(=O)NCC(O)CO)c(I)c(C(=O)NCC(O)CO)c1I (stereo not shown) [Iohexol]	1
CCCOc1ccccc1-c1nc2nn[nH]c2c(=O)[nH]1 [Zaprinast]	1
NS(=O)(=O)c1cc(C2(O)NC(=O)c3ccccc32)ccc1Cl (stereo not shown) [Chlorthalidone]	1
CCN(CC)CCNC(=O)c1ccc(N)cc1 [Procainamide hydrochloride]	1
COc1ccc(-c2ccc(=N)n(CCCC(=O)O)n2)cc1 [Gabazine]	0
Nc1c(Br)cc(Br)cc1CN[C@H]1CC[C@H](O)CC1 [Ambroxol hydrochloride]	0
CCCCCCCCNC(C)C(O)c1ccc(SC(C)C)cc1 (stereo not shown) [Suloctidil, suloctidil, reference compound]	0
C[C@@H]1C[C@H]2[C@@H]3CCC4=CC(=O)C=C[C@]4(C)[C@@]3(Cl)[C@@H](O)C[C@]2(C)[C@@]1(OC(=O)c1ccco1)C(=O)CCl [Mometasone furoate]	1
CN1C(=O)OC(C)(C)C1=O [Trimethadione]	1
